system: T1, human BCMA on BCMA expressing cell lines (human, UniProt Q02223 1-184)
T1 sequence: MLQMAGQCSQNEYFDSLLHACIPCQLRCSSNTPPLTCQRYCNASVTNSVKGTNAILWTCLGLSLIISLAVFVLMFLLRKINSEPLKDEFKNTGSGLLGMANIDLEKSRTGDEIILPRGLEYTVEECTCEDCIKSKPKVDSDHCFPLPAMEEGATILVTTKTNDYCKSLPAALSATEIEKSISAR
experimental_details: cell-based or functional assay
Items are presented alongside their recorded TDCC OPM-2 EC50.
Output spec: scalar in pM, unitless text.

# binder, observed
data = [
    ("BCMA targeting trispecific protein 01G08 (other, not shown: large carriers; small tags and cut ends, trispecific; also called 01G08 TriTAC) VHH: EVQLVESGGGLVQPGRSLTLSCAASTNIQSISPMGWYRQAPGKQRELVAAIHGFETLYADSVKGRFTISRDNAKNSIYLQMNSLRPEDTALYYCNKVPWGDYHPGNVYWGQGTQVTVSS", 6.9),
]

Note: attention shifts to another entry.
Quick note, TDCC OPM-2 EC50 for BCMA targeting trispecific protein 02B06 (other, not shown: large carriers; small tags and cut ends, trispecific; also called 02B06 TriTAC) VHH: EVQLVESGGGLVQPGRSLTLSCAASTNIFSNSPMGWYRQAPGKQRELVAAIHGFSTLYADSVKGRFTISRDNAKNSIYLQMNSLRPEDTALYYCNKVPWGDYHPGNVYWGQGTQVTVSS landed at 9.7
